target: Nuclear receptor ROR-gamma (Homo sapiens); test: qHTS assay for small molecule antagonists of the retinoid-related orphan receptor gamma (ROR-gamma) signaling pathway (AID 651802); details: ROR-gamma antagonist cell reporter assay; series mostly up to 92.2 µM; further: nearly all actives have a fitted effect of over 60% in size
Inconclusive results are not listed. Activity calls are given as the source filed them. The call rests on the fitted dose curve; in most records, active means well fitted inhibition curve with a large enough effect; inconclusive means small, poorly fitted or top-dose-only effect; inactive means no such curve, though single readings can be large or run the other way.
Outcomes: active, inactive

compound	assayed system	label class
CCC(Cl)[N+](=O)[O-] (configuration not stated)	Nuclear receptor ROR-gamma (Homo sapiens)	inactive
OCCBr	Nuclear receptor ROR-gamma (Homo sapiens)	inactive
Nc1cc(Cl)ccc1Cl	Nuclear receptor ROR-gamma (Homo sapiens)	inactive
BrCC(Br)C1CCC(Br)C(Br)C1 (configuration not stated)	Nuclear receptor ROR-gamma (Homo sapiens)	inactive
Cl/C=C/Cl	Nuclear receptor ROR-gamma (Homo sapiens)	inactive
Nc1c(Br)cc([N+](=O)[O-])cc1[N+](=O)[O-]	Nuclear receptor ROR-gamma (Homo sapiens)	inactive
N#CC(Br)Br	Nuclear receptor ROR-gamma (Homo sapiens)	inactive
C=COC(C)=O	Nuclear receptor ROR-gamma (Homo sapiens)	inactive
CCBr	Nuclear receptor ROR-gamma (Homo sapiens)	inactive
CCCCOC(C)=O	Nuclear receptor ROR-gamma (Homo sapiens)	inactive
CCOP(=S)(OCC)SCCSCC	Nuclear receptor ROR-gamma (Homo sapiens)	inactive
Cl/C=C\Cl	Nuclear receptor ROR-gamma (Homo sapiens)	inactive
CCCCC(CC)COC(=O)c1ccc(C(=O)OCC(CC)CCCC)c(C(=O)OCC(CC)CCCC)c1 (configuration not stated)	Nuclear receptor ROR-gamma (Homo sapiens)	inactive
Cc1cc(N=Nc2ccccc2C)ccc1N	Nuclear receptor ROR-gamma (Homo sapiens)	inactive
O=[N+]([O-])c1ccccc1-c1ccccc1	Nuclear receptor ROR-gamma (Homo sapiens)	inactive
N#CC(Cl)(Cl)Cl	Nuclear receptor ROR-gamma (Homo sapiens)	inactive
O=Cc1ccc2c(c1)OCO2	Nuclear receptor ROR-gamma (Homo sapiens)	inactive
Cc1cccc(C)c1N	Nuclear receptor ROR-gamma (Homo sapiens)	inactive
C=CC(=O)OCC(C)C	Nuclear receptor ROR-gamma (Homo sapiens)	inactive
C=C(Cl)CSC(=S)N(CC)CC	Nuclear receptor ROR-gamma (Homo sapiens)	inactive
CCCCCC[N+](=O)[O-]	Nuclear receptor ROR-gamma (Homo sapiens)	inactive
Cc1ccccc1[N+](=O)[O-]	Nuclear receptor ROR-gamma (Homo sapiens)	inactive
N#CC(O)c1ccccc1 (configuration not stated)	Nuclear receptor ROR-gamma (Homo sapiens)	inactive
OCC(Cl)CCl (configuration not stated)	Nuclear receptor ROR-gamma (Homo sapiens)	inactive
C=CCCl	Nuclear receptor ROR-gamma (Homo sapiens)	inactive
C=CC(=O)OCCN(C)C	Nuclear receptor ROR-gamma (Homo sapiens)	inactive
CC(Cl)CCl (configuration not stated)	Nuclear receptor ROR-gamma (Homo sapiens)	inactive
O=[N+]([O-])c1ccccc1CCl	Nuclear receptor ROR-gamma (Homo sapiens)	active
Oc1cc(Cl)c(Cl)c(Cl)c1Cl	Nuclear receptor ROR-gamma (Homo sapiens)	active
Oc1cc(Cl)c(Cl)c(Cl)c1	Nuclear receptor ROR-gamma (Homo sapiens)	active
CN(C)C(=O)Cl	Nuclear receptor ROR-gamma (Homo sapiens)	inactive
O=[N+]([O-])c1cc(Cl)c(Cl)c(Cl)c1	Nuclear receptor ROR-gamma (Homo sapiens)	inactive
c1ccc(Nc2ccc(Nc3ccccc3)cc2)cc1	Nuclear receptor ROR-gamma (Homo sapiens)	inactive
Nc1ccc(Cl)c(Cl)c1	Nuclear receptor ROR-gamma (Homo sapiens)	inactive
CCN(CC)CCO	Nuclear receptor ROR-gamma (Homo sapiens)	inactive
Cc1cc(C)cc(OP(=O)(Oc2cc(C)cc(C)c2)Oc2cc(C)cc(C)c2)c1	Nuclear receptor ROR-gamma (Homo sapiens)	active
CN(C)N=O	Nuclear receptor ROR-gamma (Homo sapiens)	inactive
Nc1cccc2ccccc12	Nuclear receptor ROR-gamma (Homo sapiens)	inactive
CC[N+](=O)[O-]	Nuclear receptor ROR-gamma (Homo sapiens)	inactive
CCCN(CCC)c1c([N+](=O)[O-])cc(C(F)(F)F)cc1[N+](=O)[O-]	Nuclear receptor ROR-gamma (Homo sapiens)	inactive
c1ccc2c(c1)CCNC2	Nuclear receptor ROR-gamma (Homo sapiens)	inactive
c1ccc2c(c1)-c1cccc3c1c-2cc1ccccc13	Nuclear receptor ROR-gamma (Homo sapiens)	inactive
O=C(O)C(Cl)(Cl)Br	Nuclear receptor ROR-gamma (Homo sapiens)	inactive
Nc1ccc([N+](=O)[O-])cc1N	Nuclear receptor ROR-gamma (Homo sapiens)	active
C=CCBr	Nuclear receptor ROR-gamma (Homo sapiens)	inactive
Clc1ccccc1	Nuclear receptor ROR-gamma (Homo sapiens)	inactive
O=[N+]([O-])c1cc(Cl)c(Cl)cc1Cl	Nuclear receptor ROR-gamma (Homo sapiens)	inactive
FC(Cl)(Cl)Cl	Nuclear receptor ROR-gamma (Homo sapiens)	inactive
O=[N+]([O-])/C=C/c1ccccc1	Nuclear receptor ROR-gamma (Homo sapiens)	inactive
COC(C)(C)C	Nuclear receptor ROR-gamma (Homo sapiens)	inactive
CCC[N+](=O)[O-]	Nuclear receptor ROR-gamma (Homo sapiens)	inactive
CCNCC	Nuclear receptor ROR-gamma (Homo sapiens)	inactive
CCOC(=O)CBr	Nuclear receptor ROR-gamma (Homo sapiens)	inactive
COc1cc(-c2ccc(N)c(OC)c2)ccc1N	Nuclear receptor ROR-gamma (Homo sapiens)	inactive
Cc1ccc(N)c(N)c1	Nuclear receptor ROR-gamma (Homo sapiens)	inactive
ClCc1ccccc1	Nuclear receptor ROR-gamma (Homo sapiens)	inactive
c1ccc2c(c1)ccc1cc3c(ccc4ccccc43)cc12	Nuclear receptor ROR-gamma (Homo sapiens)	inactive
C[N+](=O)[O-]	Nuclear receptor ROR-gamma (Homo sapiens)	inactive
CC(C)Br	Nuclear receptor ROR-gamma (Homo sapiens)	inactive
c1ccc(NNc2ccccc2)cc1	Nuclear receptor ROR-gamma (Homo sapiens)	inactive
Nc1ccc(Oc2ccc(N)cc2)cc1	Nuclear receptor ROR-gamma (Homo sapiens)	inactive
Nc1cc(Cl)ccc1O	Nuclear receptor ROR-gamma (Homo sapiens)	inactive
CCCCCCCCCCCOC(=O)c1ccccc1C(=O)OCCCCCCCCCCC	Nuclear receptor ROR-gamma (Homo sapiens)	inactive
CCCCC(=O)Cl	Nuclear receptor ROR-gamma (Homo sapiens)	inactive
ClC(Br)Br	Nuclear receptor ROR-gamma (Homo sapiens)	inactive
CCOS(C)(=O)=O	Nuclear receptor ROR-gamma (Homo sapiens)	inactive
Nn1cnnc1	Nuclear receptor ROR-gamma (Homo sapiens)	inactive
